Recorded log10 of EC50 values for a group of molecules are listed next.
Tgt: Bcl-2-related protein A1 (Homo sapiens, UniProt Q16548)
Sequence (Q16548 whole entry): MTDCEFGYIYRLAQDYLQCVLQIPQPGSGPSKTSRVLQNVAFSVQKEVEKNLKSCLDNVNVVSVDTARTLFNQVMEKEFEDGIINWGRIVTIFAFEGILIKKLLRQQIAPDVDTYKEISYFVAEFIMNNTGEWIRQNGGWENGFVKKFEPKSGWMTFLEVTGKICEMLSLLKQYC
Assay text: Bfl-1/Bim complex disruptors – biochemical, multiplexed, bead-based flow cytometry, HTS hits, confirmation (AID 2080)
log10 EC50, nM

Worked examples, 5 molecules total:
S=c1[nH]cc(-c2ccccc2)n1-c1ccccc1; 3.48
CN(CCO)c1cc(Sc2nc3ccccc3s2)c2nonc2c1[N+](=O)[O-]; 2.86
CC(=O)Nc1ccc(-n2cc(-c3ccccc3)[nH]c2=S)cc1; 3.31
O=C(Nc1nnc(COc2ccc(Cl)cc2)s1)c1ccco1; 3.49
CCN1C(=O)/C(=C\C=C2/C=CC=CN2CC)SC1=S; 3.37

Consider Cc1ccc(-c2cc(-c3ccc(C)o3)nc(N)c2C#N)cc1 . Its measured log10 of EC50 is 3.74

Consider O=[N+]([O-])c1c(NCCCO)cc(Sc2nc3ccccc3s2)c2nonc12 . Its measured log10 of EC50 is 2.41

Consider C=CS(=O)(=O)c1sc(Cl)c(N2CCOCC2)c1[N+](=O)[O-] . Its measured log10 of EC50 is 3.55

Consider COc1ccccc1-n1c(-c2ccccc2)c[nH]c1=S . Its measured log10 of EC50 is 3.09

Consider Cc1cc2nn(-c3cccc4ccccc34)nc2cc1N . Its measured log10 of EC50 is 3.18

Consider CNC(CC(=O)c1ccc([N+](=O)[O-])cc1)C(Cl)(Cl)Cl (stereo not given) . Its measured log10 of EC50 is 3.60

Consider O=c1[nH]c(O)c(Cc2ccc(-c3cc(Cl)ccc3[N+](=O)[O-])o2)c(=O)[nH]1 . Its measured log10 of EC50 is 2.91

Consider COc1cc(/N=C2\SSNC2Cl)c(OC)cc1Cl (stereo not given) . Its measured log10 of EC50 is 3.76

Consider CC(=O)OCCCNc1cc(Sc2nc3ccccc3s2)c2nonc2c1[N+](=O)[O-] . Its measured log10 of EC50 is 2.23

Consider O=C1C(Cl)=C(N2CCN(c3ccccc3[N+](=O)[O-])CC2)C(=O)c2ccccc21 . Its measured log10 of EC50 is 3.43

---

Recorded EC50 values for a group of compounds are listed next.
Tgt: Bcl-2-related protein A1 (Homo sapiens, UniProt Q16548)
Assay text: Bfl-1/Bim complex disruptors – biochemical, multiplexed, bead-based flow cytometry, HTS hits, confirmation (AID 2080)
Experimental setup: inactive by the depositor's call
Give the value, in units of µM, as a plain number.

Cc1ccc(-c2cc(-c3ccc(F)cc3)c(C#N)c(N)n2)o1; 20
Clc1nc(NCc2cccnc2)nc(N2CCOCC2)n1; 20
O=C1C(=Cc2ccco2)NC(=S)N1c1ccccc1; 17.4

Consider CCN(CC)c1ccc(NC(=O)c2ccccc2Br)cc1S(=O)(=O)Nc1ccccc1OC . Its measured EC50 is 10.7

Consider CCN(CC)c1ccc(NC(=O)c2ccccc2F)cc1S(=O)(=O)Nc1ccccc1OC . Its measured EC50 is 25.8

Consider COc1ccc(CCNC(=O)c2ccc3nc(-c4ccco4)c(-c4ccco4)nc3c2)cc1OC . Its measured EC50 is 15.4

---

Recorded EC50 values for a group of molecules are listed next.
Tgt: Bcl-2-related protein A1 (Homo sapiens, UniProt Q16548)
Assay text: Bfl-1/Bim complex disruptors – biochemical, multiplexed, bead-based flow cytometry, HTS hits, confirmation (AID 2080)
Give the value, in units of µM, as a plain number.

Worked examples, 5 molecules total:
Cc1nnc(Sc2cc(NCCO)c([N+](=O)[O-])c3nonc23)s1; 0.82
COc1ccccc1NC1=C(NC(C)=O)C(=O)c2ccccc2C1=O; 1.84
COc1ccc(N2C(=O)C(Cl)=C(Oc3cccc(OC)c3)C2=O)cc1; 1.06
Cc1cc(-c2cc(-c3ccc(Cl)cc3)nc(N)c2C#N)co1; 4.92
O=C(NCc1ccccc1)c1ccc2nc(-c3ccco3)c(-c3ccco3)nc2c1; 8.1

We next turn to a different molecule, shown below.
Consider Oc1ccc(NCc2ccccc2OCc2ccccc2)cc1 [SMR000231540] . Its measured EC50 is 8.06
